The measured values listed here are drawn from paper PMC12175220.

- protocol-description: Solubility of hydroxycinnamic acids in pure solvents (orbital shaker 72 h, HPLC)
- Format: physicochemical
- condition-parameters: pure solvent 101, 25 °C, organic solvent or mixture, thermodynamic from solid, solvent 101, 298 K; read-out: Solubility
readout-name: solubility at 72 h (mg/mL)
Value expressed in mg/mL; do not type the unit.

Entry under review: O=C(O)/C=C/c1ccc(O)cc1 . Reported solubility at 72 h?
176

###

- protocol-description: Solubility of hydroxycinnamic acids in pure solvents (orbital shaker 72 h, HPLC)
- Format: physicochemical
- condition-parameters: pure ethylene glycol (EG), 25 °C, organic solvent or mixture, thermodynamic from solid, solvent EG (ethylene glycol), 298 K; read-out: Solubility
readout-name: solubility at 72 h (mg/mL)
Just the number please, in mg/mL, no unit attached.

>>> data_value("O=C(O)/C=C/c1ccc(O)cc1")
103

# context switch: different molecule, same solubility at 72 h
Which measured solubility at 72 h value corresponds to O=C(O)/C=C/c1ccc(O)c(O)c1 ?
55.8

###

Listed here are compounds together with their documented solubility at 72 h.
- protocol-description: Solubility of hydroxycinnamic acids in pure solvents (orbital shaker 72 h, HPLC)
- Type: physicochemical
- condition-parameters: pure solvent PG, 25 °C, organic solvent or mixture, thermodynamic from solid, solvent PG; Tables S-1 to S-3; read-out: Solubility
Give the number; mg/mL is assumed, so skip it.

>>> data_value("O=C(O)/C=C/c1ccc(O)c(O)c1 [Caffeic acid]")
27.4

Lab note: next compound to report on.
Could you tell me which solubility at 72 h is on file for O=C(O)/C=C/c1ccc(O)cc1 [Coumaric acid, coumaric acid] ?
91.1

###

- protocol-description: Solubility of hydroxycinnamic acids in pure solvents (orbital shaker 72 h, HPLC)
- Format: physicochemical
- condition-parameters: pure solvent 100, 25 °C, organic solvent or mixture, thermodynamic from solid, solvent 100; Tables S-13 to S-15; read-out: Experimental solubility
readout-name: solubility at 72 h (mg/mL)
Field format: number, assumed mg/mL, no unit text.

Which value of solubility at 72 h has been reported for O=C(O)/C=C/c1ccc(O)cc1 in the records?
142

###

Parameter: solubility at 72 h. Scope: all listed entries.
- protocol-description: Solubility of hydroxycinnamic acids in pure solvents (orbital shaker 72 h, HPLC)
- Assay type: physicochemical
- condition-parameters: pure solvent 3F00, 25 °C, organic solvent or mixture, thermodynamic from solid, solvent 3F00; Tables S-1 to S-3; read-out: Solubility
- Experimental: Amber vials were used to protect the samples from light. To ensure reliability, all of the experiments were performed in triplicate. The samples were shaken in a biological orbital shaker at 100 rpm for 72 h at 25 °C. Before the samples were measured, they must be sonicated to avoid the formation of dimers and ensure the uniformity of the peaks. The column used for the quantification was a C18 Phenomenex Luna ([…] × 5 μm). […]

>>> data_value("O=C(O)/C=C/c1ccc(O)cc1 [Coumaric acid, coumaric acid]")
"17.2 mg/mL"

Quick one: solubility at 72 h of O=C(O)/C=C/c1ccc(O)c(O)c1 [Caffeic acid] ?
5.5 mg/mL

###

The molecules listed here are annotated with their solubility at 72 h.
- protocol-description: Solubility of hydroxycinnamic acids in pure solvents (orbital shaker 72 h, HPLC)
- Type: physicochemical
- condition-parameters: pure solvent 202, 25 °C, organic solvent or mixture, thermodynamic from solid, solvent 202; Tables S-1 to S-3; read-out: Solubility
Response body: numeric value in mg/mL, unit text excluded.

>>> data_value("O=C(O)/C=C/c1ccc(O)c(O)c1")
12

Next up:
Entry O=C(O)/C=C/c1ccc(O)cc1 has what solubility at 72 h?
120

###

Below, each of the compounds is paired with its reported solubility at 72 h value.
- protocol-description: Solubility of hydroxycinnamic acids in pure solvents (orbital shaker 72 h, HPLC)
- Assay type: physicochemical
- condition-parameters: pure solvent EGMME, 25 °C, organic solvent or mixture, thermodynamic from solid, solvent EGMME; Tables S-1 to S-3; read-out: Solubility
Just the number please, in mg/mL, no unit attached.

Looking for the measured solubility at 72 h of O=C(O)/C=C/c1ccc(O)cc1 , can you help?
256

Can you share its solubility at 72 h? I mean this compound: O=C(O)/C=C/c1ccc(O)c(O)c1
98.9

###

- protocol-description: Solubility of hydroxycinnamic acids in pure solvents (orbital shaker 72 h, HPLC)
- Assay type: physicochemical
- condition-parameters: pure solvent 111, 25 °C, organic solvent or mixture, thermodynamic from solid, solvent 111; Tables S-13 to S-15; read-out: Experimental solubility
readout-name: solubility at 72 h (mg/mL)
Give the value, in units of mg/mL, as a plain number.

Entry under review: O=C(O)/C=C/c1ccc(O)c(O)c1 . Reported solubility at 72 h?
32.5

###

- protocol-description: Solubility of hydroxycinnamic acids in pure solvents (orbital shaker 72 h, HPLC)
- Type: physicochemical
- condition-parameters: pure solvent 111, 25 °C, organic solvent or mixture, thermodynamic from solid, solvent 111; Tables S-1 to S-3; read-out: Solubility
readout-name: solubility at 72 h
Enter the number, and then the unit.

>>> data_value("O=C(O)/C=C/c1ccc(O)c(O)c1")
"32.5 mg/mL"

Okay, now this molecule:
Look up solubility at 72 h for this molecule: O=C(O)/C=C/c1ccc(O)cc1
110 mg/mL

###

- protocol-description: Solubility of hydroxycinnamic acids in pure solvents (orbital shaker 72 h, HPLC)
- Assay type: physicochemical
- condition-parameters: pure solvent 400, 25 °C, organic solvent or mixture, thermodynamic from solid, solvent 400; Tables S-1 to S-3; read-out: Solubility
// reported solubility at 72 h per item
Give the number; mg/mL is assumed, so skip it.

>>> data_value("O=C(O)/C=C/c1ccc(O)c(O)c1")
33.5

Using the record for O=C(O)/C=C/c1ccc(O)cc1 , report its solubility at 72 h.
95.1

###

- protocol-description: Solubility of hydroxycinnamic acids in pure solvents (orbital shaker 72 h, HPLC)
- Format: physicochemical
- condition-parameters: pure solvent EGDME, 25 °C, organic solvent or mixture, thermodynamic from solid, solvent EGDME; Tables S-1 to S-3; read-out: Solubility
List of solubility at 72 h values.
Output spec: scalar in mg/mL, unitless text.

>>> data_value("O=C(O)/C=C/c1ccc(O)cc1 [Coumaric acid, coumaric acid]")
161

Query: solubility at 72 h; subject: O=C(O)/C=C/c1ccc(O)c(O)c1 [Caffeic acid]
32.5

###

- protocol-description: Solubility of hydroxycinnamic acids in pure solvents (orbital shaker 72 h, HPLC)
- Format: physicochemical
- condition-parameters: pure solvent 101, 25 °C, organic solvent or mixture, thermodynamic from solid, solvent 101; Tables S-1 to S-3; read-out: Solubility
- Experimental: Amber vials were used to protect the samples from light. To ensure reliability, all of the experiments were performed in triplicate. The samples were shaken in a biological orbital shaker at 100 rpm for 72 h at 25 °C. Before the samples were measured, they must be sonicated to avoid the formation of dimers and ensure the uniformity of the peaks. The column used for the quantification was a C18 Phenomenex Luna ([…] × 5 μm). […]
readout-name: solubility at 72 h (mg/mL)
Respond numerically; units are mg/mL and should not be typed.

>>> data_value("O=C(O)/C=C/c1ccc(O)c(O)c1")
81.1

Let's switch to this compound now.
Using the record for O=C(O)/C=C/c1ccc(O)cc1 , report its solubility at 72 h.
176

###

- protocol-description: Solubility of hydroxycinnamic acids in pure solvents (orbital shaker 72 h, HPLC)
- Assay type: physicochemical
- condition-parameters: pure solvent 3F03F, 25 °C, organic solvent or mixture, thermodynamic from solid, solvent 3F03F; Tables S-1 to S-3; read-out: Solubility
readout-name: solubility at 72 h (µg/mL)
Record the value in µg/mL, omitting the unit from your answer.

What measured solubility at 72 h goes with O=C(O)/C=C/c1ccc(O)cc1 [Coumaric acid, coumaric acid] ?
2700

###

- protocol-description: Solubility of hydroxycinnamic acids in pure solvents (orbital shaker 72 h, HPLC)
- Assay type: physicochemical
- condition-parameters: pure solvent 3i00, 25 °C, organic solvent or mixture, thermodynamic from solid, solvent 3i00; Tables S-1 to S-3; read-out: Solubility
readout-name: solubility at 72 h
Note to self: number, then unit, no commentary.

>>> data_value("O=C(O)/C=C/c1ccc(O)cc1")
"112 mg/mL"

# next compound below
// query solubility at 72 h value for entry O=C(O)/C=C/c1ccc(O)c(O)c1
45.8 mg/mL

###

- protocol-description: Solubility of hydroxycinnamic acids in pure solvents (orbital shaker 72 h, HPLC)
- Assay type: physicochemical
- condition-parameters: pure solvent 400, 25 °C, organic solvent or mixture, thermodynamic from solid, solvent 400; Tables S-13 to S-15; read-out: Experimental solubility
- Protocol: Amber vials were used to protect the samples from light. To ensure reliability, all of the experiments were performed in triplicate. The samples were shaken in a biological orbital shaker at 100 rpm for 72 h at 25 °C. Before the samples were measured, they must be sonicated to avoid the formation of dimers and ensure the uniformity of the peaks. The column used for the quantification was a C18 Phenomenex Luna ([…] × 5 μm). […]
Reported solubility at 72 h values for a set of compounds
Answer with a number only, understood to be in mg/mL.

>>> data_value("O=C(O)/C=C/c1ccc(O)cc1 [Coumaric acid, coumaric acid]")
93.1

For the compound O=C(O)/C=C/c1ccc(O)c(O)c1 [Caffeic acid] , what solubility at 72 h is on record?
33.4
